Reported pKi on human PDE10A2 (Homo sapiens (Human)) for assorted compounds, compiled from publications.
// scale note: pKi = -log10(conc_M); give the bare number

Please review the following examples before continuing.
Cc1ccc([C@H]2C[C@@H]2COc2nc(C)ncc2-c2cn(C)nc2C(O)C(F)F)nc1 (some centres unmarked)
8.83
Cc1ccc([C@H]2C[C@@H]2COc2nc(C)ncc2-c2cnc3[nH]ncc3c2)nc1
9.43
Cc1nc(-c2ccccc2O)cc(N2CC(c3nc4ccccc4n3C)C2)n1
7.52

Record lookup: for human PDE10A2 (Homo sapiens (Human)), what pKi belongs to Cc1ncc(C2(O)CCC3(CC2)OCCO3)c(OC[C@H]2C[C@@H]2c2ccc3ccccc3n2)n1 ?
8.20

Record lookup: for human PDE10A2 (Homo sapiens (Human)), what pKi belongs to Cc1nc([C@@H]2C[C@H]2c2nc3ccccc3n2C)cc(-n2nc(C)nc2C)n1 ?
8.85

Record lookup: for human PDE10A2 (Homo sapiens (Human)), what pKi belongs to Cc1nc(N2CC(c3nc4ccccc4n3C)C2)cc(-n2nc(C)nc2-c2ccccc2Cl)n1 ?
9.46

Record lookup: for human PDE10A2 (Homo sapiens (Human)), what pKi belongs to COc1ccc([C@H]2C[C@@H]2COc2nc(C)ncc2-c2ncno2)nc1 ?
7.64

Record lookup: for human PDE10A2 (Homo sapiens (Human)), what pKi belongs to COc1ccc([C@H]2C[C@@H]2COc2nc(C)ncc2-c2ccc(=O)n(C)n2)nc1 ?
8.55

Record lookup: for human PDE10A2 (Homo sapiens (Human)), what pKi belongs to Cc1ccc([C@H]2C[C@@H]2COc2nc(C)ncc2-c2ccn(CC#N)c(=O)c2)nc1 ?
8.97

Record lookup: for human PDE10A2 (Homo sapiens (Human)), what pKi belongs to CCn1c(C)c(-c2cnc(C)nc2OC[C@H]2C[C@@H]2c2ccc(OC)cn2)ccc1=O ?
8.75

Record lookup: for human PDE10A2 (Homo sapiens (Human)), what pKi belongs to COC(=O)c1cnc(-c2cnc(C)nc2OC[C@H]2C[C@@H]2c2ccc(OC)cn2)cn1 ?
8.01

Record lookup: for human PDE10A2 (Homo sapiens (Human)), what pKi belongs to COc1ccc([C@H]2C[C@@H]2COc2nc(C)ncc2-c2cc(=O)n(C)cc2Cl)nc1 ?
8.95
